Cited source for all entries: ChEMBL document CHEMBL4261487

test: Half life in beagle dog at 5 mg/kg, po
Format: ADME, organism-based, Canis lupus familiaris
condition-notes: in vivo
value-type: half-life (min)
Just the number in min, nothing appended.

Query: Look at this molecule and give its reported half-life. "C[C@@H](c1nc2ccc(N3CCC[C@@H](C(=O)N4CCCC4)C3)nc2[nH]1)n1cc(Cl)cn1"
Response: 180

Query: Look at this molecule and give its reported half-life. CC(c1nc2cnc(N3CCC[C@@H](C(=O)N4CCCC4)C3)nc2[nH]1)n1cc(Cl)cn1 (single isomer, unassigned; diastereomer 1)
Response: 228

----------
Tested on: UGT
test: Drug metabolism in human liver microsomes assessed as UGT-mediated glucuronidation by measuring clearance rate
Type: ADME
condition-notes: liver microsomes, read-out: CLH
value-type: microsomal CLint (µL/min/mg)
Just the number in µL/min/mg, nothing appended.

Query: Look at this molecule and give its reported microsomal CLint. "C[C@H](c1nc2ccc(N3CCC[C@@H](C(=O)N4CCCC4)C3)nc2[nH]1)n1cc(Cl)cn1"
Response: 7.6

Query: Look at this molecule and give its reported microsomal CLint. CC(c1nc2cnc(N3CCC[C@@H](C(=O)N4CCCC4)C3)nc2[nH]1)n1cc(Cl)cn1 (single isomer, unassigned; diastereomer 2)
Response: 15.2

Query: Look at this molecule and give its reported microsomal CLint. "C[C@@H](c1nc2ccc(N3CCC[C@@H](C(=O)N4CCCC4)C3)nc2[nH]1)n1cc(Cl)cn1"
Response: 10.8

----------
Please provide measured clearance for the entries that follow.
test: Plasma clearance in beagle dog at 1 mg/kg, iv
Type: ADME, organism-based, Canis lupus familiaris
Just the number in mL/min/kg, nothing appended.

Query: Look at this molecule and give its reported clearance. CC(c1nc2cnc(N3CCC[C@@H](C(=O)N4CCCC4)C3)nc2[nH]1)n1cc(Cl)cn1 (single isomer, unassigned; diastereomer 1)
Response: 7.3

Query: Look at this molecule and give its reported clearance. "C[C@@H](c1nc2ccc(N3CCC[C@@H](C(=O)N4CCCC4)C3)nc2[nH]1)n1cc(Cl)cn1"
Response: 4

----------
System: Canis familiaris
test: Toxicity in telemetered beagle dog assessed as increase in heart rate at 10 mg/kg administered via oral gavage measured over 24 hrs
Format: organism-based, Canis lupus familiaris
condition-notes: in vivo
value-type: Activity

Query: Look at this compound and give its reported Activity. "CS(=O)(=O)O.O=C([C@@H]1CCCN(c2ccc3nc(C4(n5cc(Cl)cn5)CC4)[nH]c3n2)C1)N1CCCC1"
Response: 4 to 10 bpm

----------
test: Oral bioavailability in beagle dog at 5 mg/kg
Assay type: ADME, organism-based, Canis lupus familiaris
condition-notes: in vivo
value-type: bioavailability
Be sure to follow the number with its unit.

Query: Look at this molecule and give its reported bioavailability. CC(c1nc2cnc(N3CCC[C@@H](C(=O)N4CCCC4)C3)nc2[nH]1)n1cc(Cl)cn1 (single isomer, unassigned; diastereomer 1)
Response: 32%

Query: Look at this molecule and give its reported bioavailability. "C[C@@H](c1nc2ccc(N3CCC[C@@H](C(=O)N4CCCC4)C3)nc2[nH]1)n1cc(Cl)cn1"
Response: 75%

----------
test: Fraction unbound in dog plasma
Format: ADME, cell-free, Canis lupus familiaris
value-type: fraction unbound
Please reply with the number alone, leaving off any unit.

Query: Look at this compound and give its reported fraction unbound. "C[C@@H](c1nc2ccc(N3CCC[C@@H](C(=O)N4CCCC4)C3)nc2[nH]1)n1cc(Cl)cn1"
Response: 0.12

Query: Look at this compound and give its reported fraction unbound. CC(c1nc2cnc(N3CCC[C@@H](C(=O)N4CCCC4)C3)nc2[nH]1)n1cc(Cl)cn1 (single isomer, unassigned; diastereomer 1)
Response: 0.25
